- Tested on: NCI/ADR-RES
- Experimental Protocol: Growth inhibition of human NCI-ADR-RES cells assessed as cell growth at 10 uM after 48 hrs by sulforhodamine B assay
- Format: functional
- Condition Set: read-out: Activity
Could you label it 1.0 if measured growth at 10 µM is 80% or higher, and 0.0 otherwise?

{"columns": ["Smiles", "Tested Target", "Class Label"],
 "data": [
  ["CCOc1ccc(-n2nc(C(=O)NCc3cc(F)cc(F)c3)nc2-c2cc(OC)c(OC)c(OC)c2)cc1", "NCI/ADR-RES", 0.0],
  ["COc1cccc(-n2nc(C(=O)NCc3ccccc3OC)nc2-c2cc(OC)c(OC)c(OC)c2)c1", "NCI/ADR-RES", 0.0],
  ["CCOc1ccc(-n2nc(C(=O)Nc3ccc(F)c(F)c3)nc2-c2cc(OC)c(OC)c(OC)c2)cc1", "NCI/ADR-RES", 0.0],
  ["CCOc1ccc(-n2nc(C(=O)Nc3cccc(OC)c3)nc2-c2cc(OC)c(OC)c(OC)c2)cc1", "NCI/ADR-RES", 0.0],
  ["CCOc1ccc(-n2nc(C(=O)NCc3ccccc3OC)nc2-c2cc(OC)c(OC)c(OC)c2)cc1", "NCI/ADR-RES", 0.0],
  ["CCOc1ccc(-n2nc(C(=O)Nc3cc(OC)c(OC)c(OC)c3)nc2-c2cc(OC)c(OC)c(OC)c2)cc1", "NCI/ADR-RES", 1.0],
  ["COc1cccc(-n2nc(C(=O)Nc3ccccc3)nc2-c2cc(OC)c(OC)c(OC)c2)c1", "NCI/ADR-RES", 1.0],
  ["CCOc1ccc(-n2nc(C(=O)Nc3ccc(F)c(F)c3F)nc2-c2cc(OC)c(OC)c(OC)c2)cc1", "NCI/ADR-RES", 1.0],
  ["CCOc1ccc(-n2nc(C(=O)Nc3ccccc3OC)nc2-c2cc(OC)c(OC)c(OC)c2)cc1", "NCI/ADR-RES", 1.0],
  ["COc1cccc(-n2nc(C(=O)NCc3ccccc3C)nc2-c2cc(OC)c(OC)c(OC)c2)c1", "NCI/ADR-RES", 0.0]
]}

###

- System: SN12C
- Experimental Protocol: Growth inhibition of human SN12C cells assessed as cell growth at 10 uM after 48 hrs by sulforhodamine B assay
- Type: functional
- Condition Set: read-out: Activity
Record true whenever growth at 10 µM is at 90% or higher; record false when lower.

{"columns": ["Smiles", "Class Label"],
 "data": [
  ["COc1cccc(-n2nc(C(=O)Nc3ccccc3)nc2-c2cc(OC)c(OC)c(OC)c2)c1", "true"],
  ["CCOc1ccc(-n2nc(C(=O)NCc3cc(F)cc(F)c3)nc2-c2cc(OC)c(OC)c(OC)c2)cc1", "false"],
  ["CCOc1ccc(-n2nc(C(=O)NCc3ccccc3OC)nc2-c2cc(OC)c(OC)c(OC)c2)cc1", "false"],
  ["COc1cccc(-n2nc(C(=O)NCc3ccccc3OC)nc2-c2cc(OC)c(OC)c(OC)c2)c1", "true"],
  ["CCOc1ccc(-n2nc(C(=O)Nc3ccc(F)c(F)c3F)nc2-c2cc(OC)c(OC)c(OC)c2)cc1", "false"],
  ["CCOc1ccc(-n2nc(C(=O)Nc3ccccc3OC)nc2-c2cc(OC)c(OC)c(OC)c2)cc1", "false"],
  ["CCOc1ccc(-n2nc(C(=O)NCc3cccc(OC)c3)nc2-c2cc(OC)c(OC)c(OC)c2)cc1", "true"]
]}

###

growth at 10 µM: recorded values
- System: MDA-MB-435
- Experimental Protocol: Growth inhibition of human MDA-MB-435 cells assessed as cell growth at 10 uM after 48 hrs by sulforhodamine B assay
- Assay type: functional
- Condition Set: MDA-MB-435, 48 h, read-out: Activity

{"columns": ["Smiles", "growth at 10 µM"],
 "data": [
  ["CCOc1ccc(-n2nc(C(=O)Nc3cc(OC)c(OC)c(OC)c3)nc2-c2cc(OC)c(OC)c(OC)c2)cc1", "79.6%"],
  ["COc1cccc(-n2nc(C(=O)Nc3ccccc3)nc2-c2cc(OC)c(OC)c(OC)c2)c1", "90.4%"],
  ["CCOc1ccc(-n2nc(C(=O)Nc3ccccc3OC)nc2-c2cc(OC)c(OC)c(OC)c2)cc1", "86.9%"],
  ["CCOc1ccc(-n2nc(C(=O)NCc3cccc(OC)c3)nc2-c2cc(OC)c(OC)c(OC)c2)cc1", "92.5%"],
  ["CCOc1ccc(-n2nc(C(=O)Nc3ccc(F)c(F)c3F)nc2-c2cc(OC)c(OC)c(OC)c2)cc1", "90%"],
  ["CCOc1ccc(-n2nc(C(=O)Nc3ccc(OC)c(O)c3)nc2-c2cc(OC)c(OC)c(OC)c2)cc1", "95%"],
  ["CCOc1ccc(-n2nc(C(=O)Nc3ccccc3)nc2-c2cc(OC)c(OC)c(OC)c2)cc1", "0.19%"],
  ["COc1cccc(-n2nc(C(=O)NCc3ccccc3OC)nc2-c2cc(OC)c(OC)c(OC)c2)c1", "90.8%"],
  ["CCOc1ccc(-n2nc(C(=O)Nc3cccc(OC)c3)nc2-c2cc(OC)c(OC)c(OC)c2)cc1", "86.8%"],
  ["CCOc1ccc(-n2nc(C(=O)NCc3ccccc3OC)nc2-c2cc(OC)c(OC)c(OC)c2)cc1", "22.1%"],
  ["CCOc1ccc(-n2nc(C(=O)Nc3ccc(F)c(F)c3)nc2-c2cc(OC)c(OC)c(OC)c2)cc1", "70.3%"],
  ["CCOc1ccc(-n2nc(C(=O)NCc3cc(F)cc(F)c3)nc2-c2cc(OC)c(OC)c(OC)c2)cc1", "67%"],
  ["CCOc1ccc(-n2nc(C(=O)Nc3cc(F)cc(F)c3)nc2-c2cc(OC)c(OC)c(OC)c2)cc1", "91%"],
  ["COc1cccc(-n2nc(C(=O)NCc3ccccc3C)nc2-c2cc(OC)c(OC)c(OC)c2)c1", "85.8%"]
]}

###

- System: HepG2
- Experimental Protocol: Inhibition of beta tubulin polymerisation in human HepG2 cells incubated for 2 hrs using TMB substrate by ELISA relative to untreated control
- Type: cell-based
- Design: concentration or dose not given beside the values
- Condition Set: dose or concentration not given here
inhibition overview

{"columns": ["Smiles", "inhibition (%)"],
 "data": [
  ["CCOc1ccc(-n2nc(C(=O)Nc3cccc(OC)c3)nc2-c2cc(OC)c(OC)c(OC)c2)cc1", 49.6],
  ["CCOc1ccc(-n2nc(C(=O)NCc3ccccc3OC)nc2-c2cc(OC)c(OC)c(OC)c2)cc1", 85.6],
  ["CCOc1ccc(-n2nc(C(=O)Nc3ccccc3)nc2-c2cc(OC)c(OC)c(OC)c2)cc1", 42.7],
  ["COc1ccc(/C=C\\c2cc(OC)c(OC)c(OC)c2)cc1O", 72.3],
  ["COc1cccc(-n2nc(C(=O)Nc3cc(F)cc(F)c3)nc2-c2cc(OC)c(OC)c(OC)c2)c1", 65.2],
  ["COc1cccc(-n2nc(C(=O)Nc3ccccc3)nc2-c2cc(OC)c(OC)c(OC)c2)c1", 62.3],
  ["CCOc1ccc(-n2nc(C(=O)NCc3cc(F)cc(F)c3)nc2-c2cc(OC)c(OC)c(OC)c2)cc1", 71.8]
]}

###

Known growth at 10 µM of a selection of compounds
- Tested on: HCT-116
- Experimental Protocol: Growth inhibition of human HCT116 cells assessed as cell growth at 10 uM after 48 hrs by sulforhodamine B assay
- Assay type: functional
- Condition Set: HCT-116, 48 h, read-out: Activity
Measured Property: growth at 10 µM (%)

{"columns": ["Smiles", "Quantitative Readout"],
 "data": [
  ["COc1cccc(-n2nc(C(=O)Nc3ccccc3)nc2-c2cc(OC)c(OC)c(OC)c2)c1", 91.3],
  ["CCOc1ccc(-n2nc(C(=O)Nc3cc(OC)c(OC)c(OC)c3)nc2-c2cc(OC)c(OC)c(OC)c2)cc1", 75.8],
  ["CCOc1ccc(-n2nc(C(=O)Nc3ccc(OC)c(O)c3)nc2-c2cc(OC)c(OC)c(OC)c2)cc1", 96.7],
  ["CCOc1ccc(-n2nc(C(=O)Nc3ccccc3OC)nc2-c2cc(OC)c(OC)c(OC)c2)cc1", 72.7],
  ["CCOc1ccc(-n2nc(C(=O)NCc3cccc(OC)c3)nc2-c2cc(OC)c(OC)c(OC)c2)cc1", 96]
]}

###

- System: SF-268
- Experimental Protocol: Growth inhibition of human SF268 cells assessed as cell growth at 10 uM after 48 hrs by sulforhodamine B assay
- Assay type: functional
- Condition Set: SF-268, 48 h, read-out: Activity
Measured Property: growth at 10 µM (%)

{"columns": ["Smiles", "Measured Property", "Unit Name", "Quantitative Readout"],
 "data": [
  ["CCOc1ccc(-n2nc(C(=O)Nc3ccc(F)c(F)c3)nc2-c2cc(OC)c(OC)c(OC)c2)cc1", "growth at 10 µM", "%", 84.9],
  ["CCOc1ccc(-n2nc(C(=O)Nc3cc(OC)c(OC)c(OC)c3)nc2-c2cc(OC)c(OC)c(OC)c2)cc1", "growth at 10 µM", "%", 92.1],
  ["CCOc1ccc(-n2nc(C(=O)Nc3ccccc3)nc2-c2cc(OC)c(OC)c(OC)c2)cc1", "growth at 10 µM", "%", 76.5],
  ["COc1cccc(-n2nc(C(=O)Nc3ccccc3)nc2-c2cc(OC)c(OC)c(OC)c2)c1", "growth at 10 µM", "%", 88.6],
  ["COc1cccc(-n2nc(C(=O)NCc3ccccc3C)nc2-c2cc(OC)c(OC)c(OC)c2)c1", "growth at 10 µM", "%", 85.8],
  ["COc1cccc(-n2nc(C(=O)NCc3ccccc3OC)nc2-c2cc(OC)c(OC)c(OC)c2)c1", "growth at 10 µM", "%", 95.5],
  ["CCOc1ccc(-n2nc(C(=O)Nc3ccc(OC)c(O)c3)nc2-c2cc(OC)c(OC)c(OC)c2)cc1", "growth at 10 µM", "%", 94.1],
  ["CCOc1ccc(-n2nc(C(=O)Nc3cc(F)cc(F)c3)nc2-c2cc(OC)c(OC)c(OC)c2)cc1", "growth at 10 µM", "%", 88.9],
  ["CCOc1ccc(-n2nc(C(=O)Nc3ccc(F)c(F)c3F)nc2-c2cc(OC)c(OC)c(OC)c2)cc1", "growth at 10 µM", "%", 82.3],
  ["CCOc1ccc(-n2nc(C(=O)Nc3ccccc3OC)nc2-c2cc(OC)c(OC)c(OC)c2)cc1", "growth at 10 µM", "%", 89.2],
  ["CCOc1ccc(-n2nc(C(=O)NCc3ccccc3OC)nc2-c2cc(OC)c(OC)c(OC)c2)cc1", "growth at 10 µM", "%", 54.1],
  ["CCOc1ccc(-n2nc(C(=O)NCc3cccc(OC)c3)nc2-c2cc(OC)c(OC)c(OC)c2)cc1", "growth at 10 µM", "%", 91.5],
  ["CCOc1ccc(-n2nc(C(=O)Nc3cccc(OC)c3)nc2-c2cc(OC)c(OC)c(OC)c2)cc1", "growth at 10 µM", "%", 80.7],
  ["CCOc1ccc(-n2nc(C(=O)NCc3cc(F)cc(F)c3)nc2-c2cc(OC)c(OC)c(OC)c2)cc1", "growth at 10 µM", "%", 65.5]
]}

The reported measurements were obtained from ChEMBL document CHEMBL4138126.
